B1: Homeobox protein cut-like 2, residues 895 to 963; numbered along this chain, O14529 (parent)
chain: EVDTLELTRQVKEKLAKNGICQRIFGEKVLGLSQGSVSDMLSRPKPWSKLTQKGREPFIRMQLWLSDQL

- Variants of: B1
- assay: abundance fitness (aPCA) (normalised: wild type 0, dead -1); higher = more abundant; growth selection in yeast, the domain comes from the species named
- condition_label: Homo sapiens
measurement_name: abundance fitness

In the examples that follow, each entry is paired with its recorded abundance fitness.
1) EVDTLELTFQVKEKLAKNGICQRIFGEKVLGLSQGSVSDMLSRPKPWSKLTQKGREPFIRMQLWLSDQL [R9F]
-0.181
2) EVDTLELTRQVKEKLAKNGICQRIFGEKVLGLSQGSVSDMLSRPKPWSKLTQKGREPFIRMQLWLSCQL [D67C]
-0.576
3) EVDTLELTRQVKEKLAKNGIMQRIFGEKVLGLSQGSVSDMLSRPKPWSKLTQKGREPFIRMQLWLSDQL [C21M]
-0.045
4) EVDTLELTRQVKEHLAKNGICQRIFGEKVLGLSQGSVSDMLSRPKPWSKLTQKGREPFIRMQLWLSDQL [K14H]
-0.009
5) EVDTLELTRQVKEKLAKNGICQRIFGEKVLGLSQGSVSDMLSRPKCWSKLTQKGREPFIRMQLWLSDQL [P46C]
-0.319
6) EVDTLELTRQVKEKLAKNGICQRIFDEKVLGLSQGSVSDMLSRPKPWSKLTQKGREPFIRMQLWLSDQL [G26D]
-0.306
7) EVDTLELTRQVKEKLAKNGICQHIFGEKVLGLSQGSVSDMLSRPKPWSKLTQKGREPFIRMQLWLSDQL [R23H]
-0.094
8) EVDTLELTRQVKEKLRKNGICQRIFGEKVLGLSQGSVSDMLSRPKPWSKLTQKGREPFIRMQLWLSDQL [A16R]
0.036
9) EVDTLELTRQDKEKLAKNGICQRIFGEKVLGLSQGSVSDMLSRPKPWSKLTQKGREPFIRMQLWLSDQL [V11D]
-0.065
10) EVDTLELTRQVKEKLAKNGICQRIFGEKVLGLSQGSVSDMLSRPKPWSKLTQVGREPFIRMQLWLSDQL [K53V]
-0.259

Briefly, abundance fitness measured for EVDTLELTRQVKEKLAKNGICQRIFGEKVQGLSQGSVSDMLSRPKPWSKLTQKGREPFIRMQLWLSDQL [L30Q] : -0.423

Briefly, abundance fitness measured for EVDTLELTRQVKEKLAKNGICQRIFGEKVLGLSQGSVSDMLSRPKPWSKLTQKGREPFIRMTLWLSDQL [Q62T] : -0.308

Briefly, abundance fitness measured for EVDTLELTRQVKEKLAKNGICQRIFGEKVLGLSQGSCSDMLSRPKPWSKLTQKGREPFIRMQLWLSDQL [V37C] : -0.031

Briefly, abundance fitness measured for EDDTLELTRQVKEKLAKNGICQRIFGEKVLGLSQGSVSDMLSRPKPWSKLTQKGREPFIRMQLWLSDQL [V2D] : -0.301

Briefly, abundance fitness measured for EVDTLELTRQVKEKLAKGGICQRIFGEKVLGLSQGSVSDMLSRPKPWSKLTQKGREPFIRMQLWLSDQL [N18G] : -0.098

Briefly, abundance fitness measured for EVDTLELTRQVKEKLAKNGICQRIFGEKVLGLSQGSVSDMLSRPKPWSKLTQKGREPFIDMQLWLSDQL [R60D] : -0.905

Briefly, abundance fitness measured for EVDTLELTRQVKEKLAKNGICQRIFGEKVLGLSQGSVSDMLSRPKPWSKLTQKGREPFIRMQLWLSDML [Q68M] : -0.022

Briefly, abundance fitness measured for EVDTLELTRQVKEKLAKNGICQRIFGEKVLGLSQGSVSDMLSRPKPWSKLTQKGYEPFIRMQLWLSDQL [R55Y] : -0.76

Briefly, abundance fitness measured for EVDTLELTRQVKEKLAKNGICQRIFGEKVLGLSQGSVSDMLSRPKPWSKLTQKGRYPFIRMQLWLSDQL [E56Y] : -0.248

Briefly, abundance fitness measured for EVDTLELTRQVKEKLAKNGICQRIFGEKVLGLSQGSVSDMESRPKPWSKLTQKGREPFIRMQLWLSDQL [L41E] : -0.41

Briefly, abundance fitness measured for EVDTLELTRQVKEKLAKNGICQRIFGFKVLGLSQGSVSDMLSRPKPWSKLTQKGREPFIRMQLWLSDQL [E27F] : -0.173

Briefly, abundance fitness measured for EVDTLELTRQVKEKLAKNGICQRIFGEKVLGLSEGSVSDMLSRPKPWSKLTQKGREPFIRMQLWLSDQL [Q34E] : -0.254

Briefly, abundance fitness measured for EVDTLELTRQVKEKLAKNGICQRIFGEKVLGLSQGSVSDMLSRWKPWSKLTQKGREPFIRMQLWLSDQL [P44W] : -0.103

Briefly, abundance fitness measured for EVDTLELTRQVKEKLAKNGICQRIFGEKVLNLSQGSVSDMLSRPKPWSKLTQKGREPFIRMQLWLSDQL [G31N] : -0.121

Briefly, abundance fitness measured for EVDTLELTRQVKEKLAKNGICQRIFGEKVLGLSQGSVSDMLSRPKPWSKLTQKGREPFIRMQYWLSDQL [L63Y] : -0.115

Briefly, abundance fitness measured for EVDTLELTRQVKEKLAKNGICQRIFGEKVLGLSQGSVSDMLSRPKPWSKLTQKGREPFIRMQLWLIDQL [S66I] : -0.039

Briefly, abundance fitness measured for EVDTLELTRQVKEKLAKNGIVQRIFGEKVLGLSQGSVSDMLSRPKPWSKLTQKGREPFIRMQLWLSDQL [C21V] : -0.174

Briefly, abundance fitness measured for EVDTLELTRQVKEKLAKNGICQRIFGEKVLGLSQGSVSDMLSRPKPWSKLTQKGREPFIRMQLWLSDVL [Q68V] : -0.072

Recorded values, source the Human Domainome abundance scans (Beltran et al. 2025).
